target: D3R (Homo sapiens); assay: D3R radioligand binding assay ([125I]IABN, HEK cells); design: expressed in transfected cells; conditions: human D3 expressed in HEK cells, [125I]IABN radioligand, at least three experiments, HCl salts; read-out: Ki ± SEM D3R
Sequence (P35462 whole entry): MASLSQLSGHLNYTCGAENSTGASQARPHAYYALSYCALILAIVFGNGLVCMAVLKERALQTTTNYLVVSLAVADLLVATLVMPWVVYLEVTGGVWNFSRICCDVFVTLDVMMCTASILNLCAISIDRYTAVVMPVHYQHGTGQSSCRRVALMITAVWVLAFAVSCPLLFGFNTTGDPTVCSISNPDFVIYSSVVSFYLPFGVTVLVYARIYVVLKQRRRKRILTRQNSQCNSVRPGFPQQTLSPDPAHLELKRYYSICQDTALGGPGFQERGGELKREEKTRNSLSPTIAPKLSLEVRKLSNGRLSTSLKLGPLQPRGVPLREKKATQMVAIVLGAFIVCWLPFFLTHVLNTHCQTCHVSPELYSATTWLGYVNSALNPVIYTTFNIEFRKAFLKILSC
measured quantity: log10 of Ki (log10 of the value in nM)

- compound: "C=CCN1C[C@H](OC(=O)NCCCCCC)C[C@H]1CNC(=O)c1cc(CCCF)cc(OC)c1OC [(R,S)-trans-2b]"
  assay target: "D3R (Homo sapiens)"
  observed result: 0.20
- compound: "C=CCN1C[C@H](OC(=O)NCCCCCCCCc2cccs2)C[C@H]1CNC(=O)c1cc(CCCF)cc(OC)c1OC [(R,S)-trans-2i]"
  assay target: "D3R (Homo sapiens)"
  observed result: -0.15
- compound: "C=CCN1C[C@H](OC(=O)NCCCCCCc2cccs2)C[C@H]1CNC(=O)c1cc(CCCF)cc(OC)c1OC [(R,S)-trans-2h]"
  assay target: "D3R (Homo sapiens)"
  observed result: -0.22
- compound: "C=CCN1C[C@H](OC(=O)NCCOCCOCCOC)C[C@H]1CNC(=O)c1cc(CCCF)cc(OC)c1OC [(R,S)-trans-2e]"
  assay target: "D3R (Homo sapiens)"
  observed result: 0.61
- compound: "C=CCN1C[C@H](OC(=O)NCCCCCCCC)C[C@H]1CNC(=O)c1cc(CCCF)cc(OC)c1OC [(R,S)-trans-2c]"
  assay target: "D3R (Homo sapiens)"
  observed result: 0.53
- compound: "C=CCN1C[C@@H](OC(=O)NCCCCCCCCCC)C[C@@H]1CNC(=O)c1cc(CCCF)cc(OC)c1OC [(S,R)-trans-2d]"
  assay target: "D3R (Homo sapiens)"
  observed result: 3.42
- compound: "C=CCN1C[C@H](OC(=O)NCCCCCCCCCC)C[C@@H]1CNC(=O)c1cc(CCCF)cc(OC)c1OC [(R,R)-cis-2d]"
  assay target: "D3R (Homo sapiens)"
  observed result: 3.22
